Where do the numbers come from? From PubChem BioAssay AID2060909.

Tested on: 362531-283-R-J2-PDC complex spheroid viability
Assay: Anticancer human tumor 362531-283-R-J2-PDC patient-derived colon adenocarcinoma cell line growth inhibition [RAS]
Conditions: compound 0.1 µM; stronger effect = lower value
MEASURED_ENDPOINT: viability, T/C

These solved cases illustrate the format of a correct answer.
>  <COMPOUND>
NC1c2ccccc2OC12CCN(c1cnc3c(N4CCCc5ncccc54)n[nH]c3n1)CC2 (stereo not given)

>  <ASSAYED_TARGET>
362531-283-R-J2-PDC complex spheroid viability

>  <MEASURED_ENDPOINT>
viability, T/C

>  <EXPERIMENTAL_RESULT>
90% [middle of 4 runs]

$$$$
>  <COMPOUND>
CCN1CCN(Cc2ccc(Nc3ncc(F)c(-c4cc(F)c5nc(C)n(C(C)C)c5c4)n3)nc2)CC1

>  <ASSAYED_TARGET>
362531-283-R-J2-PDC complex spheroid viability

>  <MEASURED_ENDPOINT>
viability, T/C

>  <EXPERIMENTAL_RESULT>
79.9% [middle of 4 runs]

$$$$
>  <COMPOUND>
C=CC(=O)Nc1cc(Nc2nccc(-c3cn(C)c4ccccc34)n2)c(OC)cc1N(C)CCN(C)C

>  <ASSAYED_TARGET>
362531-283-R-J2-PDC complex spheroid viability

>  <MEASURED_ENDPOINT>
viability, T/C

>  <EXPERIMENTAL_RESULT>
101% [middle of 4 runs]

$$$$
>  <COMPOUND>
CC1(O)CCCC1n1c(=O)c(C(F)F)cc2cnc(NC3CCN(S(C)(=O)=O)CC3)nc21 (stereo not given)

>  <ASSAYED_TARGET>
362531-283-R-J2-PDC complex spheroid viability

>  <MEASURED_ENDPOINT>
viability, T/C

>  <EXPERIMENTAL_RESULT>
104% [middle of 4 runs]

$$$$

Read the next record carefully.
In: Name the reported viability, T/C value associated with the compound `O=C(c1ccc(F)c(F)c1Nc1ccc(I)cc1F)N1CC(O)([C@@H]2CCCCN2)C1`
Out: 90.7% [middle of 4 runs]

###

System: 362531-283-R-J2-PDC complex spheroid viability
Experiment: Anticancer human tumor 362531-283-R-J2-PDC cell line growth inhibition [RAS]; active means viability on the fitted dose curve at most 10% of control; inactive means the rest;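 also: spheroids exposed to the agents for 7 days before readout; luminescence viability as percent of DMSO vehicle control wells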
Conditions: second compound 0.3 µM; first compound 1 µM
Source text: RAS pathway inhibitors in Combinations in Complex Spheroids A high-throughput screen of multi-cell type tumor spheroids was designed to identify active combinations of RAS pathway inhibitors and targeted small molecules. Complex spheroids include a stromal component modeled by human endothelial cells (HUVEC) and fibroblasts modeled by human mesenchymal stem cells (MSCs). […] Compounds. […] If the clinical Cmax for an agent had not been determined, the highest concentration tested was 10 microM. […]
Please state which outcome applies, choosing from 1 (yes) for active, 0 (no) for inactive

>  <COMPOUND>
NC1c2ccccc2OC12CCN(c1cnc3c(N4CCCc5ncccc54)n[nH]c3n1)CC2 (configuration not stated) + CCn1c(-c2cccnc2C(C)OC)c2c3cc(ccc31)N1CCOC(CC(NC(=O)C(C(C)C)N(C)C(=O)C3(F)CCN(C(=O)C#CC(C)(C)N(C)C)CC3)C(=O)N3CCCC(N3)C(=O)OCC(C)(C)C2)C1

>  <CLASS_LABEL>
0 (no)

$$$$

In: Hi, sorry to bother you, what did the test record for CC(=O)OC12COC1CC(O)C1(C)C(=O)C(O)C3=C(C)C(OC(=O)C(O)C(NC(=O)OC(C)(C)C)c4ccccc4)CC(O)(C(OC(=O)c4ccccc4)C21)C3(C)C (configuration not stated) + CCn1c(-c2cc(N3CCN(C)CC3)cnc2C(C)OC)c2c3cc(ccc31)-c1csc(n1)CC(NC(=O)C1CC1C)C(=O)N1CCCC(N1)C(=O)OCC(C)(C)C2 ?
Out: 1 (yes)
